# TEST_TARGET: human recombinant dopamine D2S receptor (Homo sapiens, UniProt P14416)
# Sequence (P14416 1-414 isoform P14416-2): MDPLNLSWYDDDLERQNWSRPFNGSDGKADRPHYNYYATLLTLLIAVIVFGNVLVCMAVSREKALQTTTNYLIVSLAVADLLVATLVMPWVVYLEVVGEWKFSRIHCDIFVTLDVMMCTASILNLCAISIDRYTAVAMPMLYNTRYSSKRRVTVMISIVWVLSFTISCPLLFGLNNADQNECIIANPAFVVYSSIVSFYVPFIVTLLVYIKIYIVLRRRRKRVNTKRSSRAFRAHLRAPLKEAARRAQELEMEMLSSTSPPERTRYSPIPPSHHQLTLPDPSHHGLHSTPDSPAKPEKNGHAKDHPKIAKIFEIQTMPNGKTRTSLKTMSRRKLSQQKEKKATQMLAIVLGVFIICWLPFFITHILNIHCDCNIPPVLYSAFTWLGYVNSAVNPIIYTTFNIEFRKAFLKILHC
# PROCEDURE_SUMMARY: [3H] spiperone binding, cells expressing human recombinant dopamine D2S receptors
# EXPERIMENTAL_SETUP: [3H] spiperone binding
# Procedure: The activity of F17464 was evaluated at recombinant dopaminergic receptors in vitro for its profile at D2 and D3 receptor. […] F17464 was also evaluated for its agonist, partial agonist, or antagonist activity at the dopamine D3 receptor by using the MAP-kinase activity test on human recombinant dopamine D3 receptors (Cussac et al., Mol. Pharmacol. 1999, 56, 1025-1030). […]
QUANTITY: pKi
Conceptually, pKi converts a concentration in mol/L into minus its log10.

Problem: Please report the recorded pKi for CS(=O)(=O)Nc1cccc(N2CCN(CCCCc3coc4cc5c(cc4c3=O)OCO5)CC2)c1 .
Solution: 8.19
